Provenance of the data: patent US20240301052A1

MEASURED_TARGET: T1, human SLC34A2 (human, UniProt O95436 1-690)
T1 construct: whole, on cells; also called human solute carrier 34 A2; NaPi2b
T1 sequence (looked up): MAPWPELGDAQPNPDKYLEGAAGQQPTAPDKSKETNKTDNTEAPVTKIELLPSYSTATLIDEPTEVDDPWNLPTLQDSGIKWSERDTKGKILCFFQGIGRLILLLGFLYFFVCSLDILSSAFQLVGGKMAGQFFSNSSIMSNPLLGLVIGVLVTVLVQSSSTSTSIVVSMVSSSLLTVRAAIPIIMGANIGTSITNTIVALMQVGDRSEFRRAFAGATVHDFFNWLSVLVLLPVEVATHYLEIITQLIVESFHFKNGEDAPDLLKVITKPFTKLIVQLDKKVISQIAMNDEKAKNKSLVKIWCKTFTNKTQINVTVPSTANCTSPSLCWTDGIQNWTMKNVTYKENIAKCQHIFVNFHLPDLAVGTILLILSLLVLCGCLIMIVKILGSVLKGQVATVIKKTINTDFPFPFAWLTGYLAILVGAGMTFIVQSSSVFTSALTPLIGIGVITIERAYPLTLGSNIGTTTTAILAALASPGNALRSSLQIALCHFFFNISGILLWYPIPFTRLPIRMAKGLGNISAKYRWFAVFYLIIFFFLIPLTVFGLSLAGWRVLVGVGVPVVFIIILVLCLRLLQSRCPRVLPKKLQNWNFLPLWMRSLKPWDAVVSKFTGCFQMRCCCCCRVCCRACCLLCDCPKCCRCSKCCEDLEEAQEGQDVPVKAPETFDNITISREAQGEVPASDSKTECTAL
TEST_METHOD_NOTES: FACS, HEK293/human SLC34A2 cells
Method: In another testing, cell based binding of hu Abs on human SLC34A2 expressing cells were assessed using flow cytometry. Briefly, the HEK293/H_SLC34A2, OVCAR3 and RMG-1 cells were incubated with hu Abs. After incubation at 4° C. for 60 minutes, the cells were washed with FACS buffer twice, then stained with fluorescent conjugated secondary antibody at 4° C. for 30 minutes. After that the cells were washed twice and analyzed by flow cytometry.
# maps each entry to its EC50
Form entry: value (nM) — number only.

Illustrative cases are given below, each with its answer.
63A11D5B4 VH_P1/VL hIgG1 (antibody, V domains shown, PTM-derisked chimeric, hIgG1; that P1 is the SG version follows from the humanized .p1 chains; also called 63A11D5B4.p1 hIgG1) VH: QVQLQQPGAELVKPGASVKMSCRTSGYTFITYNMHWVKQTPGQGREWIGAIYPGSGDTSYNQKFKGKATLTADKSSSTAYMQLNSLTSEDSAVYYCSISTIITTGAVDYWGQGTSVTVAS VL: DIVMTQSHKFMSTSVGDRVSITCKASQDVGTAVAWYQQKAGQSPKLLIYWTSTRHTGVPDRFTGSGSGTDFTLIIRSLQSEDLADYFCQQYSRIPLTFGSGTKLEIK    2.79
91C9F1.p1.z7 hIgG1 (antibody, V domains shown, humanized hIgG1) VH: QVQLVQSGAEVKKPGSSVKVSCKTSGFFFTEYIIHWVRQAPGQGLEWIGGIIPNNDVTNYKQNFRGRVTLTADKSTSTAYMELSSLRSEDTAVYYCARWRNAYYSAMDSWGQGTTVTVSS VL: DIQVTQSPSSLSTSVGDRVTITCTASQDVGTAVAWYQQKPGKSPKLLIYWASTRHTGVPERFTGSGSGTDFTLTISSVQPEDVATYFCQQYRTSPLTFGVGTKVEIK    1.67

Fill in reported EC50 for this entry: 91C9F1.p1.z4 hIgG1 (antibody, V domains shown, humanized hIgG1) VH: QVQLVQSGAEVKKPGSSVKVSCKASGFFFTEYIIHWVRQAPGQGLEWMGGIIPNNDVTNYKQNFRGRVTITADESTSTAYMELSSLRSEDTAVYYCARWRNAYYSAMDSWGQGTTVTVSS VL: DIVVTQSPSSLSTSVGDRVTITCTASQDVGTAVAWYQQKPGKSPKLLIYWASTRHTGVPERFTGSGSGTDFTLTISSVQPEDVATYFCQQYRTSPLTFGVGTKLELK
1.12
